study system: Melatonin receptor type 1B (Homo sapiens, UniProt P49286)
Sequence (P49286 whole entry): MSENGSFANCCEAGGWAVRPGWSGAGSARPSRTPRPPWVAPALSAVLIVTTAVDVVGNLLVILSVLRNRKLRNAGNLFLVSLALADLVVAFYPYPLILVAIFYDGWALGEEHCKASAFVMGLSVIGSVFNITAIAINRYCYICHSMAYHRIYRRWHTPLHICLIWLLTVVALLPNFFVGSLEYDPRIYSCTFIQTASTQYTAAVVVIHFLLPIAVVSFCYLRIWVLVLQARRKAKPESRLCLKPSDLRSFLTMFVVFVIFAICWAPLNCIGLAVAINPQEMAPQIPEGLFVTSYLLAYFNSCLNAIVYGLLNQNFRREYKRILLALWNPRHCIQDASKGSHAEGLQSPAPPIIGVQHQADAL
pKi: −log10 of the molar value.
Listing of pKi toward Melatonin receptor type 1B (Homo sapiens, UniProt P49286), each taken from a published source.
endpoint: pKi

Would you please look over these solved cases?
molecule | study system | pKi
C=CC(=O)NCCc1c(Cc2ccccc2)oc2ccc(OC)cc12 | Melatonin receptor type 1B (Homo sapiens, UniProt P49286) | 9.16
CCC(=O)NC[C@@H]1C[C@H]1c1cccc2c1C[C@@H](CCCCc1ccccc1)O2 | Melatonin receptor type 1B (Homo sapiens, UniProt P49286) | 8.70
COc1ccc(O)c(CCCNC(C)=O)c1 | Melatonin receptor type 1B (Homo sapiens, UniProt P49286) | 7.34
CCC(=O)Nc1ccc(Nc2cccc(OC)c2)cc1 | Melatonin receptor type 1B (Homo sapiens, UniProt P49286) | 8.74
CC(=O)NCCC1=C(c2ccoc2)Cc2ccc3c(c21)CCO3 | Melatonin receptor type 1B (Homo sapiens, UniProt P49286) | 11.02

(I) CCc1ccc2oc(Cc3cccc(OC)c3)c(CCNC(C)=O)c2c1
(II) COc1cccc(Oc2ccc(NC(=O)C(C)C)cc2)c1
Dear colleague, could you let me know whether I or II has the lower recorded pKi? Thanks. Indicate your choice by writing its label.
II
